meta.source: patent US20220056037A1

# Test system: LIXAH SNU-398
# PROCEDURE_DETAILS: 2D cell proliferation assay (CellTiter-Blue)
# Type: cell-based
# ASSAY_CONTEXT: Homo sapiens, 72 h; cell line LIXAH SNU-398; three days of treatment; read-out: IC (abs. IC50)
PROPERTY_NAME: pIC50
To interpret pIC50, take it as minus log10 of a concentration measured in moles per litre.

Problem: Hello, I am looking for reported pIC50 with LIXAH SNU-398 for `CN1CCN(c2ccc(Nc3ncc4cc(C(=O)N(C)C)n(C56CC(C5)C6)c4n3)cc2)CC1` . Could you help?
Result: 6.83

###

# TGT: CDK9-CYCLINT1 (Homo sapiens)
# Construct: purchased Carna
# Sequence (P50750 whole entry): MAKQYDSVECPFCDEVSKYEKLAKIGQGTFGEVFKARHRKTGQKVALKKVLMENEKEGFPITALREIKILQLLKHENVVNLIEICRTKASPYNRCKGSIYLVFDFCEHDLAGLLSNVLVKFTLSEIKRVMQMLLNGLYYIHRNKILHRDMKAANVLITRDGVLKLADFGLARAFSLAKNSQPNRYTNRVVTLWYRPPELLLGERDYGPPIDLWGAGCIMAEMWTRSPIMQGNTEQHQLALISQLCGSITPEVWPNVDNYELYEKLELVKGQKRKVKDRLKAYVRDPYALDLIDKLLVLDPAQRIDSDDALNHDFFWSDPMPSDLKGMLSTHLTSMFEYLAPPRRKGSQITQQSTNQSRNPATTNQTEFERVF
# Sequence (O60563 whole entry partner): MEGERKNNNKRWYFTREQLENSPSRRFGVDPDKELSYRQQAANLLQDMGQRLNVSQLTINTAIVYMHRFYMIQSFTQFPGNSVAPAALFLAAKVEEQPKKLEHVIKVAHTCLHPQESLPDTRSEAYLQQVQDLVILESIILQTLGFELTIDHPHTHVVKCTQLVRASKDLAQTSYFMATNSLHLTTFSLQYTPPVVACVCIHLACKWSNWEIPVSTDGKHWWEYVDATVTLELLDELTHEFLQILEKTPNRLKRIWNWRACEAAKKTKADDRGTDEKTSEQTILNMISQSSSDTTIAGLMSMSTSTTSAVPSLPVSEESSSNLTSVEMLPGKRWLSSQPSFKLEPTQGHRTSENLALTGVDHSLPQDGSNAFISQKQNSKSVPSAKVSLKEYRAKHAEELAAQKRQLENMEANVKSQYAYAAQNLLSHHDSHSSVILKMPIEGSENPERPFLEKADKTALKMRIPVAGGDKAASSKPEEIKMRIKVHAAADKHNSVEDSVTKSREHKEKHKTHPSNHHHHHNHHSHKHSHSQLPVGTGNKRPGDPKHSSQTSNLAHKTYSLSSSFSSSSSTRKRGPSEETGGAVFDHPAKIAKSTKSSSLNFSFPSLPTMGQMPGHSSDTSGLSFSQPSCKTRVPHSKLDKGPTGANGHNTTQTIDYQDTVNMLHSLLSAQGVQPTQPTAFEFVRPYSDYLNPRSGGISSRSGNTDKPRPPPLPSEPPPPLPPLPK
# PROCEDURE_DETAILS: Inhibition assay, microfluidic LabChip (Nanosyn)
# Assay type: biochemical
# ASSAY_CONTEXT: Table 3b
pIC50: −log10 of the molar value.
PROPERTY_NAME: pIC50

Problem: Hello, I am looking for reported pIC50 with CDK9-CYCLINT1 (Homo sapiens) for CN1CCN(c2ccc(Nc3ncc4cc(C(=O)N(C)C)n(C56CC(C5)C6)c4n3)cc2)CC1 [Compound A84] . Could you help?
Result: 8.23

Problem: Hello, I am looking for reported pIC50 with CDK9-CYCLINT1 (Homo sapiens) for `Cc1cc(Nc2ncc3cc(C(=O)N(C)C)n(C45CC(C4)C5)c3n2)ccc1OCCN(C)C` . Could you help?
Result: > 8.49

Problem: Hello, I am looking for reported pIC50 with CDK9-CYCLINT1 (Homo sapiens) for `CN(C)C(=O)c1cc2cnc(Nc3ccc(S(C)(=O)=O)cc3)nc2n1C12CC(C1)C2` . Could you help?
Result: > 8.49

###

The entries below are paired with their reported log10 of IC50.
# TGT: CDK6-CYCLIND3 (Homo sapiens)
# Construct: purchased Carna
# PROCEDURE_DETAILS: Inhibition assay, microfluidic LabChip (Nanosyn)
# Format: biochemical
# ASSAY_CONTEXT: Table 2; ATP 300 μM; read-out: CDK6 IC50
Annotation: log10 of IC50, µM basis.

CN1CCN(c2ccc(Nc3ncc4cc(C(=O)N(C)C)n(C56CC(C5)C6)c4n3)cc2F)CC1 [Compound A40] ... -1.76
CN(C)C(=O)c1c(F)c2cnc(Nc3ccc(OCCN4CCCC4)nc3)nc2n1C1CCCC1 ... -0.92

Problem: Value lookup for log10 of IC50; key = `CN(C)C(=O)c1cc2cnc(Nc3ccc(C4=CCNCC4)cn3)nc2n1C12CC(C1)C2`
Result: -2.08

Problem: Value lookup for log10 of IC50; key = `CC(C)N1CC=C(c2ccc(Nc3ncc4c(F)c(C(=O)N(C)C)n(C5CCCC5)c4n3)nc2)CC1`
Result: -1.01

Problem: Value lookup for log10 of IC50; key = `CN(C)C(=O)c1c(F)c2cnc(Nc3cc(C(F)(F)F)c(N4CCNCC4)cn3)nc2n1C1CCCC1`
Result: 0.69

Problem: Value lookup for log10 of IC50; key = `CN(C)C(=O)c1c(F)c2cnc(Nc3ccc(OCCN4CCCC4)c(F)c3)nc2n1C1CCCC1`
Result: -1.43

Problem: Value lookup for log10 of IC50; key = `CCN1CCN(Cc2ccc(Nc3ncc4cc(C(=O)N(C)C)n(C56CC(C5)C6)c4n3)nc2)CC1`
Result: -1.40

Problem: Value lookup for log10 of IC50; key = `CN(C)CCOc1ccc(Nc2ncc3c(F)c(C(=O)N(C)C)n(C4CCCC4)c3n2)cc1`
Result: -1.20

###

# Test system: CXF COLO 205
# PROCEDURE_DETAILS: 2D cell proliferation assay (CellTiter-Blue)
# Format: cell-based
# ASSAY_CONTEXT: Homo sapiens, 72 h; cell line CXF COLO 205; three days of treatment; read-out: IC (abs. IC50)
PROPERTY_NAME: pIC50
To interpret pIC50, take it as minus log10 of a concentration measured in moles per litre.

Problem: Value lookup for pIC50; key = CN1CCN(c2ccc(Nc3ncc4cc(C(=O)N(C)C)n(C56CC(C5)C6)c4n3)cc2)CC1 [SPV113]
Result: 6.83

###

The entries below are paired with their reported pIC50.
# TGT: CDK6-CYCLIND3 (Homo sapiens, UniProt Q00534)
# Construct: purchased Carna
# Sequence (Q00534 whole entry): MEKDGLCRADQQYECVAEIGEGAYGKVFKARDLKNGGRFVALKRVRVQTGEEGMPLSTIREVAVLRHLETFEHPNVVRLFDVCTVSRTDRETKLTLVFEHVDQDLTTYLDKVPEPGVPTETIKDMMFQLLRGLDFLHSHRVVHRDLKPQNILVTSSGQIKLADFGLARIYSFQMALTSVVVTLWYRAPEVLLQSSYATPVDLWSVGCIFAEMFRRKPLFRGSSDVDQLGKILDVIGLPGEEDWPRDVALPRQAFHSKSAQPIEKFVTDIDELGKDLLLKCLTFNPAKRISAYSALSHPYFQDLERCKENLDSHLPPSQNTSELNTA
# Sequence (P30281 whole entry partner): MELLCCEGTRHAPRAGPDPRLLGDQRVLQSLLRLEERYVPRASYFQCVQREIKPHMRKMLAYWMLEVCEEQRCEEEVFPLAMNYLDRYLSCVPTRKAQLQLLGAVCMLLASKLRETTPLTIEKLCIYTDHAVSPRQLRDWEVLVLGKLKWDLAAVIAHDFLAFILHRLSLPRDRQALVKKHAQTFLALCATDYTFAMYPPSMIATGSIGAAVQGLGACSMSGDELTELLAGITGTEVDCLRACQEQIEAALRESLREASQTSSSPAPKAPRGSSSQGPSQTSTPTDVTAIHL
# PROCEDURE_DETAILS: Inhibition assay, microfluidic LabChip (Nanosyn)
# Assay type: biochemical
# ASSAY_CONTEXT: Table 3a; read-out: CDK6 CyclinD3 IC50
To interpret pIC50, take it as minus log10 of a concentration measured in moles per litre.

# example entries with known answers
CN(C)C(=O)c1cc2cnc(Nc3ccc(N4CCNCC4)cn3)nc2n1C12CC(C1)C2 ... 7.70
CN1CCN(c2ccc(Nc3ncc4cc(C(=O)N(C)C)n(C56CC(C5)C6)c4n3)cc2)CC1 ... 8.21
CN(C)C(=O)c1cc2cnc(Nc3ccc(N4CCNCC4)cc3)nc2n1C12CC(C1)C2 ... 7.82
CN(C)C(=O)c1cc2cnc(Nc3ccc(N4CC5(CNC5)C4)cc3)nc2n1C12CC(C1)C2 ... 7.36

Problem: Value lookup for pIC50; key = `CN(C)C(=O)c1cc2cnc(Nc3ccc(C4=CCNCC4)cn3)nc2n1C12CC(C1)C2`
Result: 7.70

###

# System: LEXFCM K-562
# PROCEDURE_DETAILS: 2D cell proliferation assay (CellTiter-Blue)
# Assay type: cell-based
# ASSAY_CONTEXT: Homo sapiens, K562, 72 h; cell line LEXFCM K-562; three days of treatment; read-out: IC (abs. IC50)
PROPERTY_NAME: IC50 (nM)
Lab book: enter the figure in nM, no units written.

Problem: Value lookup for IC50; key = `CN1CCN(c2ccc(Nc3ncc4cc(C(=O)N(C)C)n(C56CC(C5)C6)c4n3)cc2)CC1`
Result: 1150

###

The entries below are paired with their reported pIC50.
# TGT: UniProt P50613
# Sequence (P50613 whole entry): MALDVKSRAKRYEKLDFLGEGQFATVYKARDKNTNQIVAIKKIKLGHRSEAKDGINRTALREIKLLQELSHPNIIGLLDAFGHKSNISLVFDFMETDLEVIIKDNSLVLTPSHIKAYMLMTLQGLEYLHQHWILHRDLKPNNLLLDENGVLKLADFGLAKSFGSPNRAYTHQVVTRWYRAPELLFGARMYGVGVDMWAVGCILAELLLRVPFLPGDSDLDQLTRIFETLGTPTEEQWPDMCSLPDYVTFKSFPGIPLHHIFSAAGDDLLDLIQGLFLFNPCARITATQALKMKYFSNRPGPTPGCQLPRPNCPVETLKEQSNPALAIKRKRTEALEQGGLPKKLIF
# Sequence (P51946 whole entry partner): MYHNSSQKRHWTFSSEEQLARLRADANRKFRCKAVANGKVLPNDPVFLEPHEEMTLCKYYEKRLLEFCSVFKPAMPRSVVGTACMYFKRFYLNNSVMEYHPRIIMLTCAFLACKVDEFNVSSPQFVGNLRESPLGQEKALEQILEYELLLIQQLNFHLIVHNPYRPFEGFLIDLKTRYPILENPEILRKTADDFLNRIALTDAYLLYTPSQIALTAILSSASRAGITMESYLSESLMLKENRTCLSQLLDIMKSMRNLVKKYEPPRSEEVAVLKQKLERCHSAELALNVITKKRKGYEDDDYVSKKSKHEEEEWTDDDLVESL
# Sequence (P51948 whole entry partner): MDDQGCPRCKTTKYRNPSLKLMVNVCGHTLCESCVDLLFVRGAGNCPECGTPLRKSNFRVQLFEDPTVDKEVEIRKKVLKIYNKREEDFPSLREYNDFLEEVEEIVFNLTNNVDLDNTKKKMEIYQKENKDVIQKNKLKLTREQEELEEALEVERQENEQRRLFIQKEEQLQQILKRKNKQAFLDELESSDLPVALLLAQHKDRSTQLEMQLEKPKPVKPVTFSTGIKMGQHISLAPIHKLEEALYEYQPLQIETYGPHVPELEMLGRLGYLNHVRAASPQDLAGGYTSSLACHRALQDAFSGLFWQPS
# PROCEDURE_DETAILS: Inhibition assay, microfluidic LabChip (Nanosyn)
# Type: biochemical
# ASSAY_CONTEXT: Table 3a
To interpret pIC50, take it as minus log10 of a concentration measured in moles per litre.

# example entries with known answers
CN(C)C(=O)c1cc2cnc(Nc3ccc(N4CC5(CNC5)C4)cc3)nc2n1C12CC(C1)C2 [Compound A48] ... 5.31
CN(C)C(=O)c1cc2cnc(NC3CCN(S(C)(=O)=O)CC3)nc2n1C12CC(C1)C2 [Compound A75] ... 5.09

Problem: Hello, I am looking for reported pIC50 with UniProt P50613 for CN1CCN(c2ccc(Nc3ncc4cc(C(=O)N(C)C)n(C56CC(C5)C6)c4n3)cc2)CC1 [Compound A88] . Could you help?
Result: 5.78

Problem: Hello, I am looking for reported pIC50 with UniProt P50613 for CN1CCN(c2ccc(Nc3ncc4cc(C(=O)N(C)C)n(C56CC(C5)C6)c4n3)cc2)CC1 [Compound A84] . Could you help?
Result: 5.84

Problem: Hello, I am looking for reported pIC50 with UniProt P50613 for CC1CN(c2ccc(Nc3ncc4cc(C(=O)N(C)C)n(C56CC(C5)C6)c4n3)cc2)CC(C)N1 (stereo not shown) [Compound A90] . Could you help?
Result: 5.25

Problem: Hello, I am looking for reported pIC50 with UniProt P50613 for CN(C)C(=O)c1cc2cnc(Nc3ccc(N4CCNCC4)cc3)nc2n1C12CC(C1)C2 [Compound A83] . Could you help?
Result: 5.47

Problem: Hello, I am looking for reported pIC50 with UniProt P50613 for CN(C)C(=O)c1cc2cnc(Nc3ccc(N4CCNCC4)c(F)c3)nc2n1C12CC(C1)C2 [Compound A85] . Could you help?
Result: 5.94

Problem: Hello, I am looking for reported pIC50 with UniProt P50613 for CN(C)C(=O)c1cc2cnc(Nc3ccc(N4CCN(CCO)CC4)c(F)c3)nc2n1C12CC(C1)C2 [Compound A74] . Could you help?
Result: 6.03

Problem: Hello, I am looking for reported pIC50 with UniProt P50613 for Cc1cc(Nc2ncc3cc(C(=O)N(C)C)n(C45CC(C4)C5)c3n2)ccc1OCCN(C)C [Compound A92] . Could you help?
Result: 5.58

Problem: Hello, I am looking for reported pIC50 with UniProt P50613 for CN(C)C(=O)c1cc2cnc(Nc3ccc(N4CCNCC4)cn3)nc2n1C12CC(C1)C2 [Compound A86] . Could you help?
Result: 4.56

Problem: Hello, I am looking for reported pIC50 with UniProt P50613 for CN1CCC(c2ccc(Nc3ncc4cc(C(=O)N(C)C)n(C56CC(C5)C6)c4n3)cc2)CC1 [Compound A51] . Could you help?
Result: 5.69

Problem: Hello, I am looking for reported pIC50 with UniProt P50613 for CN1CC2(C1)CN(c1ccc(Nc3ncc4cc(C(=O)N(C)C)n(C56CC(C5)C6)c4n3)cc1F)C2 [Compound A70] . Could you help?
Result: 5.30

Problem: Hello, I am looking for reported pIC50 with UniProt P50613 for CC(C)N1CCN(c2ccc(Nc3ncc4cc(C(=O)N(C)C)n(C56CC(C5)C6)c4n3)cc2)CC1 (single isomer, unassigned) [Compound A89] . Could you help?
Result: 5.82
